- measurement-description: Rat single-dose pharmacokinetics
- protocol-conditions: in vivo, read-out: Vss
property-label: Vd (L/kg)

>>> df
                              smiles_record  measured
0  O=C(N[C@@H]1CCCC[C@H]1O)c1cnc(OCC(F)(F)F)c(-c2ccc(Cl)c(Cl)c2)c1       1.5

* * *

- measurement-description: Rat single-dose pharmacokinetics
- protocol-conditions: in vivo
property-label: clearance (mL/min/kg)

                              smiles_record  property_label  measured
0  O=C(N[C@@H]1CCCC[C@H]1O)c1cnc(OCC(F)(F)F)c(-c2ccc(Cl)c(Cl)c2)c1       clearance       2.5

* * *

- measurement-description: Rat single-dose pharmacokinetics
- protocol-conditions: in vivo
property-label: bioavailability (%)

                              smiles_record   property_label  measured
0  O=C(N[C@@H]1CCCC[C@H]1O)c1cnc(OCC(F)(F)F)c(-c2ccc(Cl)c(Cl)c2)c1  bioavailability       105

* * *

- measurement-description: Rat single-dose pharmacokinetics
- protocol-conditions: in vivo
property-label: half-life (h)

>>> print(df.to_string())
                              smiles_record  unit_of_measurement  measured
0  O=C(N[C@@H]1CCCC[C@H]1O)c1cnc(OCC(F)(F)F)c(-c2ccc(Cl)c(Cl)c2)c1                    h       8.9

* * *

- Tested on: Adriamycin (ADR)-induced nephropathy in Balb/c mice
- measurement-description: ADR nephropathy: WBC, hemoglobin, hematocrit, ALT, AST
- Format: in vivo, mouse
- protocol-conditions: ADR-induced nephropathy
property-label: Hgb, Range

>>> print(df.to_string())
                                   compound           measured
0  Cc1oc(-c2cccc(C(F)(F)F)c2)nc1Cn1c(C)cc2cc(C(O)(C(F)(F)F)C(F)(F)F)ccc21 [Cpd C, reference compound]    11 to 15.9 g/dL
1  O=C(N[C@@H]1CCCC[C@H]1O)c1cnc(OCC(F)(F)F)c(-c2ccc(Cl)c(Cl)c2)c1 [Cpd G]  12.2 to 13.7 g/dL
2  O=C(N[C@@H]1CCCC[C@H]1O)c1ccc(OCC(F)(F)F)c(-c2ccc(Cl)c(Cl)c2)n1 [Cpd A]  12.1 to 15.5 g/dL

* * *

- Tested on: human THP1 macrophages
- measurement-description: apoAI-mediated (ABCA1) cholesterol efflux from cholesterol-loaded THP1 macrophages
- Format: cell-based
- Set-up: dose or concentration left out as unconfirmed
- protocol-conditions: average(SEM)
The reader will find reported ABCA1 Efflux % values listed item by item below.
property-label: ABCA1 Efflux %

>>> df
                                   compound   target_or_test_system     measured
0  Cc1cc(-c2cc(NC(=O)c3cccnc3)cnc2OCC(F)(F)F)ccn1  human THP1 macrophages     -10(5) %
1  Cn1cccc(NC(=O)c2cc(-c3ccc(Cl)cc3)c(OCC(F)(F)F)cn2)c1=O  human THP1 macrophages     4(0.9) %
2  O=C(N[C@@H]1CCCC[C@H]1O)c1ccc(OCC(F)(F)F)c(-c2ccc(Cl)c(Cl)c2)n1  human THP1 macrophages    91(4.9) %
3  [N-]=[N+]=Nc1ccc(-c2cc(C(=O)N[C@@H]3CCCC[C@H]3O)cnc2OCC2CC2)cc1Cl  human THP1 macrophages   49(10.7) %
4  O=C(N[C@@H]1CCCC[C@H]1O)c1cnc(OCC2CC2)c(-c2ccc(Cl)cc2)c1  human THP1 macrophages   106(6.8) %
5  CCCCNC(=O)CCc1ccc(-c2cc(C(=O)N[C@@H]3CCCC[C@H]3O)cnc2OCC2CC2)cc1  human THP1 macrophages    24(5.0) %
6  O=C(N[C@@H]1CCCC[C@H]1O)c1cnc(OCC(F)(F)F)c(-c2ccc(Cl)cc2)c1  human THP1 macrophages  100(15.0) %
7  Cc1c(C(=O)NN2CCCCC2)nn(-c2ccc(Cl)cc2Cl)c1-c1ccc(Cl)cc1 [rimonabant, reference compound]  human THP1 macrophages       0(0) %

Data origin, for the record: paper PMC8329197
